# procedure details: Xenon long-life fadeometer test of photochromic poly(methyl methacrylate) cast film (initial coloration density, T1/2, λmax), Example 9
# Format: physicochemical
# experimental context: poly(methyl methacrylate) cast film 0.1 mm; maximum absorption wavelength
Reported λmax values for the following molecules.

| molecule | λmax / nm |
| --- | --- |
| CC1=C2C(=O)OC(=O)C2C2(CC3CCC2C3)c2sc(Br)cc21 (stereo not shown) [(7)] | 520 |
| CC1=C2C(=O)N(c3ccccc3)C(=O)C2C2(CC3CCC2C3)c2sc(Br)cc21 (stereo not shown) [(97)] | 506 |
| CCC(C(=O)OCCc1ccc2ccccc2c1)N1C(=O)C2=C(C)c3ccsc3C3(C4CC5CC(C4)CC3C5)C2C1=O (stereo not shown) [(5)] | 520 |
| COCCOCN1C(=O)C2=C(C)c3c(oc4ccccc34)C3(C4CC5CC(F)(C4)CC3(F)C5)C2C1=O (stereo not shown) [(16)] | 492 |
| CCn1c2c(c3ccccc31)C(C)=C1C(=O)OC(=O)C1C21C2CCC(C2)C1(C)C (stereo not shown) [(94)] | 546 |
| COC(=O)CN1C(=O)C2=C(C)c3ccsc3C3(C4CC5CC(C4)CC3C5)C2C1=O (stereo not shown) [(1)] | 535 |
| COc1ccc2c3c(sc2c1)C1(C2CC4CC(C2)CC1C4)C1C(=O)N(CCl)C(=O)C1=C3C (stereo not shown) [(9)] | 542 |
| CCCCC1=C2C(=O)N(CC(C)(C)CCOC(=O)CBr)C(=O)C2C2(CC3CCC2C3(C)C)c2sc3c(c21)CCCC3 (stereo not shown) [(21)] | 576 |
| COC12CC3CC(C1)C1(c4oc5ccccc5c4C(C)=C4C(=O)N(CC(=O)OC(C)(C)CCC#N)C(=O)C41)C(C3)C2 (stereo not shown) [(14)] | 490 |
| CCCCC12CC3CC(C1)C1(c4c(OC)cc(OC)cc4C(c4ccccc4)=C4C(=O)N(C(C)(C)C#N)C(=O)C41)C(C3)C2 (stereo not shown) [(17)] | 550 |
| COC(=O)C(C)N1C(=O)C2=C(c3ccccc3)c3ccoc3C3(C4CC5CC3CC(Cl)(C5)C4)C2C1=O (stereo not shown) [(12)] | 560 |
| CC1=C2C(=O)N(CC#N)C(=O)C2C2(c3sccc31)C1CC3CC(C1)CC2C3 (stereo not shown) [(2)] | 553 |
| CNC(=O)CN1C(=O)C2=C(C)c3cc([N+](=O)[O-])sc3C3(C4CC5CC(C4)CC3C5)C2C1=O (stereo not shown) [(11)] | 525 |
| CC1=C2C(=O)N(C[N+](=O)[O-])C(=O)C2C2(c3sc(C)cc31)C1CC3CC(C1)CC2C3 (stereo not shown) [(8)] | 556 |
| CC1=C2C(=O)N(CCc3ccc4ccccc4c3)C(=O)C2C2(CC3CCC2C3)c2sc(Br)cc21 (stereo not shown) [(3)] | 535 |
| CCC1=C2C(=O)N(CC(=O)CCC(=O)CCl)C(=O)C2C2(c3c1sc1ccccc31)C1(F)C(F)(F)C3(F)C(F)(F)C(F)(C1(F)F)C(F)(F)C2(F)C3(F)F (stereo not shown) [(18)] | 519 |

====

# procedure details: Fatigue life of films of fulgimide or fulgide compounds with Cyasorb UV1084, Example 14
# Assay type: physicochemical
# experimental context: with Cyasorb UV1084 (0.2 part) as ultraviolet stabilizer in poly(methyl methacrylate) film; xenon fadeometer
Reported values of T1/2 for individual entries

| molecule | quantity unit | T1/2 |
| --- | --- | --- |
| CC1=C2C(=O)N(CC#N)C(=O)C2C2(c3sccc31)C1CC3CC(C1)CC2C3 (centres unmarked) | h | 182 |
| CC1=C2C(=O)N(CCc3ccc4ccccc4c3)C(=O)C2C2(CC3CCC2C3)c2sc(Br)cc21 (centres unmarked) | h | 77 |
| CC1=C2C(=O)N(CCCCC(=O)OCCc3cccc4ccccc34)C(=O)C2C2(c3sccc31)C1CC3CC(C1)CC2C3 (centres unmarked) | h | 65 |
| COC(=O)C(C)N1C(=O)C2=C(c3ccccc3)c3ccoc3C3(C4CC5CC3CC(Cl)(C5)C4)C2C1=O (centres unmarked) | h | 160 |
| CCCCC12CC3CC(C1)C1(c4c(OC)cc(OC)cc4C(c4ccccc4)=C4C(=O)N(C(C)(C)C#N)C(=O)C41)C(C3)C2 (centres unmarked) | h | 188 |

====

Recorded Initial color density, one value per entry.
# procedure details: Durability test of poly(allyl diglycol carbonate) lens impregnated with compound in silicone oil, Example 10
# Format: physicochemical
# experimental context: impregnated from silicone oil
measurement name: Initial color density

| compound | measurement name | observed measurement |
| --- | --- | --- |
| CC(=O)CN1C(=O)C2=C(c3ccccc3)c3cc(-c4ccccc4)sc3C3(C4CC5CC(C4)CC3C5)C2C1=O (stereo not shown) | Initial color density | 0.47 |
| CC1=C2C(=O)N(CC#N)C(=O)C2C2(c3sccc31)C1CC3CC(C1)CC2C3 (stereo not shown) | Initial color density | 0.64 |
| CC1=C2C(=O)N(CC#N)C(=O)C2C2(c3occc31)C1CC3CC(C1)CC2C3 (stereo not shown) | Initial color density | 0.72 |
| CCC(C(=O)OCCc1ccc2ccccc2c1)N1C(=O)C2=C(C)c3ccsc3C3(C4CC5CC(C4)CC3C5)C2C1=O (stereo not shown) | Initial color density | 0.4 |

====

# procedure details: Durability test of poly(allyl diglycol carbonate) lens impregnated with compound in silicone oil, Example 10
# Assay type: physicochemical
# experimental context: impregnated from silicone oil at 200° C. for 1 hour, xenon fadeometer
Reported T1/2 values for a set of compounds

| compound | T1/2 / h |
| --- | --- |
| CC(=O)CN1C(=O)C2=C(c3ccccc3)c3cc(-c4ccccc4)sc3C3(C4CC5CC(C4)CC3C5)C2C1=O (centres unmarked) [(10)] | 43 |
| CCC(C(=O)OCCc1ccc2ccccc2c1)N1C(=O)C2=C(C)c3ccsc3C3(C4CC5CC(C4)CC3C5)C2C1=O (centres unmarked) [(5)] | 31 |
| CC1=C2C(=O)N(C[N+](=O)[O-])C(=O)C2C2(c3sc(C)cc31)C1CC3CC(C1)CC2C3 (centres unmarked) [(8)] | 32 |
| CC1=C2C(=O)N(CC#N)C(=O)C2C2(c3sccc31)C1CC3CC(C1)CC2C3 (centres unmarked) [(2)] | 50 |
| CC1=C2C(=O)N(CC#N)C(=O)C2C2(c3occc31)C1CC3CC(C1)CC2C3 (centres unmarked) [(28)] | 49 |
| COC(=O)CN1C(=O)C2=C(C)c3ccsc3C3(C4CC5CC(C4)CC3C5)C2C1=O (centres unmarked) [(1)] | 40 |
| COC12CC3CC(C1)C1(c4oc5ccccc5c4C(C)=C4C(=O)N(CC(=O)OC(C)(C)CCC#N)C(=O)C41)C(C3)C2 (centres unmarked) [(14)] | 42 |
| CCCCC12CC3CC(C1)C1(c4c(n(C)c5ccccc45)C(C)=C4C(=O)N(CC(=O)OCCC#N)C(=O)C41)C(Cl)(C3)C2 (centres unmarked) [(29)] | 45 |

====

# procedure details: Fatigue life of film of fulgimide compound obtained in Example 2 with ultraviolet stabilizer, Example 12
# Assay type: physicochemical
# experimental context: fulgimide compound obtained in Example 2 (0.2 part) with 0.2 part ultraviolet stabilizer in poly(methyl methacrylate) film; xenon fadeometer
This listing pairs compounds with measured T1/2.
measurement name: T1/2 (h)

| compound | observed measurement |
| --- | --- |
| CCOP(=O)([O-])Cc1cc(C(C)(C)C)c(O)c(C(C)(C)C)c1.CCOP(=O)([O-])Cc1cc(C(C)(C)C)c(O)c(C(C)(C)C)c1.[Ni+2] [Irgastab 2002] | 176 |
| CCCCN(CCCC)C(=S)[S-].CCCCN(CCCC)C(=S)[S-].[Ni+2] [Rylex NBC] | 190 |
| CCCCC(Cc1cc(C(C)(C)C)c(O)c(C(C)(C)C)c1)(C(=O)OC1CC(C)(C)N(C)C(C)(C)C1)C(=O)OC1CC(C)(C)N(C)C(C)(C)C1 [Tinuvin 144] | 182 |
| CC(C)(C)CC(C)(C)c1ccc([O-])c(Sc2cc(C(C)(C)CC(C)(C)C)ccc2[O-])c1.CCCCN.[Ni+2] [Cyasorb UV1084] | 182 |
| CN1C(C)(C)CC(OC(=O)CCCCCCCCC(=O)OC2CC(C)(C)N(C)C(C)(C)C2)CC1(C)C [Tinuvin 765] | 191 |

====

# procedure details: Xenon long-life fadeometer test of photochromic poly(methyl methacrylate) cast film (initial coloration density, T1/2, λmax), Example 9
# Type: physicochemical
# experimental context: poly(methyl methacrylate) cast film 0.1 mm; maximum absorption wavelength
# λmax annotations
measurement name: λmax (nm)

| compound | measurement name | quantity unit | observed measurement |
| --- | --- | --- | --- |
| CCCCC12CC3CC(C1)C1(c4c(n(C)c5ccccc45)C(C)=C4C(=O)N(CC(=O)OCCC#N)C(=O)C41)C(Cl)(C3)C2 (centres unmarked) | λmax | nm | 576 |
| CC1=C2C(=O)N(CCCCC(=O)OCCc3cccc4ccccc34)C(=O)C2C2(c3sccc31)C1CC3CC(C1)CC2C3 (centres unmarked) | λmax | nm | 538 |
| CC1=C2C(=O)N(c3ccc(C)cc3)C(=O)C2C2(CC3CCC2C3)c2sc3ccccc3c21 (centres unmarked) | λmax | nm | 513 |
| CC1=C2C(=O)OC(=O)C2C2(CC3CCC2(C)C3(C)C)c2sc(C)cc21 (centres unmarked) | λmax | nm | 540 |
| CC1=C2C(=O)N(CC#N)C(=O)C2C2(c3occc31)C1CC3CC(C1)CC2C3 (centres unmarked) | λmax | nm | 535 |
